# Tested on: ZR-75-1 Tam1
# MEASUREMENT NOTES: relative IC50 (midpoint of fitted logistic curve, plateau may be below 50% inhibition; CellTiter-Glo viability); higher = less potent
# MEASUREMENT SETUP: 4-OH-tamoxifen in medium 1 µM; 72 h
ASSAY METRIC: relative IC50

[
  {
    "COMPOUND": "O=C(O)CCCc1ccc(N(CCCl)CCCl)cc1",
    "OBSERVED RESULT": "> 10 µM"
  },
  {
    "COMPOUND": "CCCC(CCC)C(=O)O",
    "OBSERVED RESULT": "> 10 µM"
  },
  {
    "COMPOUND": "CN1CCC(COc2cnc(-c3cccc(Cn4nc(-c5cccc(C#N)c5)ccc4=O)c3)nc2)CC1",
    "OBSERVED RESULT": "> 1 µM"
  },
  {
    "COMPOUND": "CO[C@H]1/C=C\\C=C(/C)C(=O)NC2=CC(=O)C(NCCN(C)C)=C(C[C@@H](C)C[C@H](OC)[C@H](O)[C@@H](C)/C=C(\\C)[C@@H]1OC(N)=O)C2=O",
    "OBSERVED RESULT": "0.095 µM"
  },
  {
    "COMPOUND": "NC(=O)NO [Hydroxyurea]",
    "OBSERVED RESULT": "> 100 µM"
  }
]
